# TARGET_SYSTEM: T1, human melanocortin-4 receptor (human, UniProt P32245 1-332)
# T1 construct: whole, on cells; functional assay: HEK293-T-REx-MC4-R cells induced with 0.1 or 10 ng/mL doxycycline; also called hMC4-R; MC4-R
# T1 sequence (P32245 whole entry): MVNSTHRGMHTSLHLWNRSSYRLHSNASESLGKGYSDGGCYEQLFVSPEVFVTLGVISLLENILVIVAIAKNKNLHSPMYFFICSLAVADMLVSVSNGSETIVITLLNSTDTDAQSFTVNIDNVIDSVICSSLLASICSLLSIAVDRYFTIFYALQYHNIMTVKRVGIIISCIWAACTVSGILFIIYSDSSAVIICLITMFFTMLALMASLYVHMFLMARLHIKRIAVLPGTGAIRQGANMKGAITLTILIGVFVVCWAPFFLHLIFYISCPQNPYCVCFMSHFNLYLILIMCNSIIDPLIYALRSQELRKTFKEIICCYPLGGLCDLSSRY
# EXPERIMENT_NOTES: [I125]-NDP-α-MSH competition, hMC4-R HEK-293 membranes
Positions of bridges follow the written chain, without caps; N, C: chain ends. Non-standard residues stand in square brackets, D forms with d. dPhe(4-CN) = N#Cc1ccc(C[C@@H](N)C(=O)O)cc1; dPhe(2-Cl) = N[C@H](Cc1ccccc1Cl)C(=O)O; Orn = NCCC[C@H](N)C(=O)O
REPORTED_PROPERTY: Ki (nM)

(I) Ac-RDN[dPhe(4-CN)]RWK-NH2 (lactam 2-7, also called No. 89) [Ac-Arg-cyclo(Asp-Asn-D-Phe(4-CN)-Arg-Trp-Lys)-NH2]
(II) Ac-REN[dPhe(4-CN)]RW[Orn]-NH2 (lactam 2-7; also: acetate salt, acetate salt form; also called Ex 43) [Ac-Arg-cyclo(Glu-Asn-D-Phe(4-CN)-Arg-Trp-Orn)-NH2]
Q: Kindly identify which of I and II has the larger recorded Ki value. Response format: the label of the selected entry.
Result: I

(A) Ac-R[Orn]Q[dPhe(2-Cl)]RWE-NH2 (lactam 2-7) [Ac-Arg-cyclo(Orn-Gln-D-Phe(2-Cl)-Arg-Trp-Glu)-NH2]
(B) Ac-R[Orn]Q[dPhe(4-CN)]RWE-NH2 (lactam 2-7, also called No. 94) [Ac-Arg-cyclo(Orn-Gln-D-Phe(4-CN)-Arg-Trp-Glu)-NH2]
Q: Rank A against B by their Ki values and give the higher one. # respond with the chosen item's label
Result: A
